- assayed-target: DRB1*1101 (Homo sapiens, UniProt P01903+P01911, A100R/A169T/A87E/I96F/K41T/L162R/M171V/P40S/Q125H/Q178H/Q39Y/Q99D/R42S/S66Y/T262R/V115G/W38E)
- Sequence (P01903 26-254 limits assumed, other chains not shown): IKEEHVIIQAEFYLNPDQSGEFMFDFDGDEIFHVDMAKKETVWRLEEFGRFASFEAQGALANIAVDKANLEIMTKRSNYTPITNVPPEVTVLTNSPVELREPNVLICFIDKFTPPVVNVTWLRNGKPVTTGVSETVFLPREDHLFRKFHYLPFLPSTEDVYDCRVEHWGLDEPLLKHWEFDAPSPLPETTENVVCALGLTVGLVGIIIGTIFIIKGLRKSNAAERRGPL
- experimental-details: biochemical
- study-conditions: Binding affinity DRB1 *1101
measured-endpoint: pIC50
Please keep in mind that pIC50 is minus log10 of the molar concentration; only the number is needed.

Field pIC50 (entry CC[C@H](C)[C@H](NC(=O)[C@H](Cc1c[nH]cn1)NC(=O)[C@H](C)NC(=O)[C@H](Cc1ccc(O)cc1)NC(=O)[C@H](CC(C)C)NC(=O)[C@@H](NC(=O)[C@H](C)NC(=O)[C@@H]1CCCN1C(=O)[C@H](CCCCN)NC(=O)[C@@H](NC(=O)[C@H](CC(C)C)NC(=O)[C@@H](NC(=O)[C@H](CCCCN)NC(=O)[C@@H](N)Cc1ccccc1)[C@@H](C)O)[C@@H](C)CC)[C@@H](C)O)C(=O)N[C@@H](CCC(N)=O)C(=O)O [Peptide 89.0082] ) reads 8.26

====

Entries and their measured IC50 follow.
- assayed-target: DRB1*1101 (Homo sapiens, UniProt P01903+P01911, A100R/A169T/A87E/I96F/K41T/L162R/M171V/P40S/Q125H/Q178H/Q39Y/Q99D/R42S/S66Y/T262R/V115G/W38E)
- experimental-details: biochemical
- study-conditions: Binding affinity DRB1 *1101
No end group written: not given here.
API: value field is a number in µM; no unit string.

Field IC50 (entry DPRWPYLHSRLVVFH [Peptide 89.0113] ) reads 5.14

====

- assayed-target: A*3002 (Homo sapiens, UniProt P04439, D101N/D140H/D185E/E176R/F33S/G80R/H175R/K168Q/Q94H/R138E/R41S/V100E)
- experimental-details: biochemical
- Type: binding
No end group written: not given here.
measured-endpoint: IC50 (nM)
API: value field is a number in nM; no unit string.

Field IC50 (entry LTHFLLLKY [Peptide 9012.0134] ) reads 3.2

Field IC50 (entry GTSSLPTTMNY [Peptide 9012.0194] ) reads 7.6

Field IC50 (entry YVMAGVGSPY [Peptide 9012.0152] ) reads 12

Field IC50 (entry GTSSFSTTINY [Peptide 9012.0190] ) reads 86

Field IC50 (entry ATSPAFDNLYY [Peptide 9012.0188] ) reads 0.9

Field IC50 (entry FTTCLGLSY [Peptide 9012.0136] ) reads 1300

Field IC50 (entry ETVPISHLY [Peptide 9012.0132] ) reads 2.2

Field IC50 (entry SSDSTTINY [Peptide 9012.0130] ) reads 898

Field IC50 (entry GTDVRAMAIY [Peptide 9012.0156] ) reads 1.4

Field IC50 (entry NTDRHSVVVPY [Peptide 9012.0198] ) reads 9690

Field IC50 (entry GTDCTTIHYNY [Peptide 9012.0200] ) reads 76

Field IC50 (entry FTQENYLEY [Peptide 9012.0137] ) reads 99

Field IC50 (entry VTGPGPGY [Peptide 83.0098] ) reads 305

Field IC50 (entry ITSKASEY [Peptide 9012.0108] ) reads 165
